Form field: GI50 (one value per entry).
# Tested on: LOX IMVI
# protocol: NCI tumour cell line growth inhibition, 48 h
Active and inactive are the calls of the source. Rule as the data show it: active = GI50 up to about 1.1 µM and inactive = higher.
assay metric: GI50

1) Cn1c2ccccc2c2c3c(c4c5ccccc5n(C)c4c21)C(=O)c1ccccc1C3=O = 37.3 µM (inactive)
2) C=C1[C@H](OC(=O)C(C)C)[C@]23CC4(O)[C@@H]5[C@@]6(C)CCC[C@]57C([C@@H]2C[C@@]1(O)[C@H](O)[C@@H]73)N4C6 = > 100 µM (inactive)
3) Cc1ccc(-c2cc(=O)c(=O)[nH][nH]2)cc1 = > 100 µM (inactive)
4) [C-]#[N+]C(C)(C)C[C@H]1CC(C)C2CCC(C)C3([N+]#[C-])CCC(=C)C1[C@H]23 (stereo not given in full) = 0.147 µM (active)
5) COC(=O)c1ccc(/C=N/c2cc(C)nn2-c2ccccc2)cc1 = 35.9 µM (inactive)
6) O=c1oc2ccc([N+](=O)[O-])cc2cc1-c1csc(-c2ccccc2)n1 = > 100 µM (inactive)
7) COc1ccc2nc3cc([N+](=O)[O-])ccc3c(Nc3ccc(S(=O)(=O)Nc4ncccn4)cc3)c2c1 = > 73.8 µM (inactive)
8) Clc1ccc(Cc2nc3cc(Cl)c(Cl)cc3n2CC2CCCN3CCCCC23)cc1Cl (stereo not given) = 2.44 µM (inactive)
9) CC(=O)OC1COC(N2C(=O)/C(=N\Nc3ccc([N+](=O)[O-])cc3)c3cc(Br)c([N+](=O)[O-])cc32)C(OC(C)=O)C1OC(C)=O (stereo not given) = 51.1 µM (inactive)
10) COCOc1ccc(OC)cc1 = > 100 µM (inactive)
11) CCN(CC)/[N+]([O-])=N/OCC(C)O (stereo not given) = > 100 µM (inactive)
12) CC/C=C\C/C=C\C/C=C\CCCCCCCC(=O)OCC = 42.6 µM (inactive)
13) Cc1cc2c(cc1C)[n+]([O-])c(C(=O)N1CCN(c3ccc([N+](=O)[O-])cc3)CC1)c(C)[n+]2[O-] = 90.2 µM (inactive)
14) Cc1ccc(/C=C/C(=O)C(C)(C)CN2CCCCC2)cc1 = 9.55 µM (inactive)
15) Cc1ccc(NC(=O)C(=O)Cc2cc[n+]([O-])cc2)cc1 = > 100 µM (inactive)
16) CC(=O)Oc1cc2c(cc1OC(C)=O)C1(C)CCC2(C)c2cc(OC(C)=O)c(OC(C)=O)cc21 = 12.6 µM (inactive)
17) CCCCCCCCCCCCC(O)[C@H]1CC[C@H](C(O)CCCCCC(=O)CCCCC2CC(C(C)=O)C(=O)O2)O1 (stereo not given in full) = 2.08 µM (inactive)
18) C/C=C/[C@H]1O[C@@](OC)([C@@H](C)[C@H](O)[C@H](C)[C@H]2OC(=O)/C(OC)=C/C(C)=C/[C@@H](C)[C@@H](O)[C@@H](C)[C@@H](O)[C@H](C)C/C(C)=C/C=C/[C@@H]2OC)CC(OC2CC(O)C(OC(N)=O)C(C)O2)[C@@H]1C (stereo not given in full) = < 0.01 µM (active)
19) NNC(=O)N/N=C1\C(=O)N(c2nccs2)C(=O)C(=O)C1c1nc2ccccc2s1 (stereo not given) = > 100 µM (inactive)
20) CCCN(CCCCC(NC(C)=O)C(=O)NCc1ccccc1)C(=O)N(CCCl)N=O (stereo not given) = 22.9 µM (inactive)
21) CC1(C)CCSC(/C=C/c2ccccc2)=N1 = 13.7 µM (inactive)
22) O=C(CC(O)(C(F)(F)F)C(F)(F)F)C(c1ccccc1)C(O)(C(F)(F)F)C(F)(F)F (stereo not given) = 55.7 µM (inactive)
23) COc1ccc(/C=C/c2cc(OC)c(OC)c(OC)c2)cc1 = 5.52 µM (inactive)
24) CC(=O)OCCn1cnc2c(NCC=C(C)C)ncnc21 = > 100 µM (inactive)
25) O=c1c(-c2ccc(O)cc2)coc2cc(OC3OC(CO)C(O)C(O)C3O)cc(O)c12 (stereo not given) = 79.8 µM (inactive)
26) CC(=O)OCC(OC(C)=O)C(OC(C)=O)C(/C=N\Nc1nc2ccccc2c(=O)[nH]1)OC(C)=O (stereo not given) = > 100 µM (inactive)
27) [N-]=[N+]=Nc1nc2ccccc2c(N=[N+]=[N-])c1Cl = > 100 µM (inactive)
28) C#CCOCn1cnc2ncnc(Cl)c21 = > 100 µM (inactive)
29) CN1C2CCC1CC(CCNC(c1ccccc1)c1ccccc1)C2 (stereo not given) = 20.2 µM (inactive)
30) CC(=O)OCC1OC(NC(=S)Nn2c(=O)[nH]c3ccccc3c2=O)C(OC(C)=O)C(OC(C)=O)C1OC(C)=O (stereo not given) = > 100 µM (inactive)
31) O=C1Nc2ccccc2C(=O)/C1=C/NC(=S)NC1CCCCC1 = > 100 µM (inactive)
32) COc1cccc(/C=C2\CCC(CCN(C)C)(C3=CCCC3)C2=O)c1 (stereo not given) = 15.6 µM (inactive)
33) CC(C)(C1=NC(C(C)(C)C)CO1)C1=N[C@@H](C(C)(C)C)CO1 (stereo not given in full) = > 100 µM (inactive)
34) Cc1n[nH]c(=O)n1N=C(c1ccccc1)c1ccccc1 = > 100 µM (inactive)
35) CN(CCN(C)C(=S)NN)C(=S)NN = > 100 µM (inactive)
36) CCOC(=O)c1c(N2CCCC2)[nH]c(=O)c(C(c2c(O)c(C(=O)OCC)c(N3CCCC3)[nH]c2=O)C(C)C)c1O = > 100 µM (inactive)
37) COc1cc2c(c(OC)c1OC)-c1ccc(SC)c(=O)cc1C(CC(=O)Oc1cccc([N+](=O)[O-])c1)C2 (stereo not given) = 0.867 µM (active)
38) COc1ccc2n[se]nc2c1 = > 100 µM (inactive)
39) CCOCN1COCN(C)C1=O = > 100 µM (inactive)
40) O=P(O)(O)c1ccccc1Oc1ccccc1 = > 100 µM (inactive)
